test system: HEK-293T; test: Multiplex assay against HEK293T; assay type: toxicity, cell-based; details: human, 48 h, 10 µM, compound concentration 10 uM, replicate 2

- Compound: "CN(C)C(=O)/C(C#N)=C/c1ccc(-c2nc3cnc4[nH]ccc4c3n2C2CCCCC2)o1"
  Study System: "HEK-293T"
  Population Pyknosed Nuclei (%): 13
- Compound: "CN1CCCC(n2nc(Cc3ccc(Cl)cc3)c3ccccc3c2=O)CC1.Cl (configuration not stated) [AZELASTINE HYDROCHLORIDE]"
  Study System: "HEK-293T"
  Population Pyknosed Nuclei (%): 34
- Compound: "C=CC(=O)Nc1cccc(C(=O)Nc2ccc(Nc3cc(-c4[nH]c(SC)nc4C)ccn3)cc2)c1"
  Study System: "HEK-293T"
  Population Pyknosed Nuclei (%): 15
- Compound: "CNCc1ccccc1-c1csc([C@H](C)Nc2nc(C)nc3cc(OC)c(OC)cc23)c1"
  Study System: "HEK-293T"
  Population Pyknosed Nuclei (%): 49
- Compound: "Cc1csc2c(N[C@@H](C)CN3CCN(S(=O)(=O)c4ccc(Cl)c(Cl)c4)CC3)ncnc12"
  Study System: "HEK-293T"
  Population Pyknosed Nuclei (%): 73
- Compound: "CC[C@H](C)C(=O)O[C@H]1C[C@@H](C)C=C2C=C[C@H](C)[C@H](CC[C@@H]3C[C@@H](O)CC(=O)O3)[C@H]21"
  Study System: "HEK-293T"
  Population Pyknosed Nuclei (%): 21
- Compound: "CN(C)CC#Cc1ccc(OCCCc2sc(N3CCc4cccc(C(=O)Nc5nc6ccccc6s5)c4C3)nc2C(=O)O)c(F)c1"
  Study System: "HEK-293T"
  Population Pyknosed Nuclei (%): 19
- Compound: "Cc1cc(C)cc(-c2cnc3cc(Cl)c(-c4cccc(O)c4)cc3c2OCCCN)c1"
  Study System: "HEK-293T"
  Population Pyknosed Nuclei (%): 70
- Compound: "CCOCCn1cc(C(=O)Nc2ccc(-n3nc(-c4cccnc4)cc3C(F)(F)F)cn2)ccc1=O"
  Study System: "HEK-293T"
  Population Pyknosed Nuclei (%): 33
- Compound: "C[C@@]1(C(=O)Nc2ccc(F)nc2)CCCN1c1nc(Nc2cc(C3CC3)n[nH]2)c2cccn2n1"
  Study System: "HEK-293T"
  Population Pyknosed Nuclei (%): 37
- Compound: "COc1cc(-n2cnc3cc(-c4ccc(Cl)cc4)sc3c2=O)ccc1OCCN1CCCC1"
  Study System: "HEK-293T"
  Population Pyknosed Nuclei (%): 50
- Compound: "Cn1cc(-c2[nH]c3cc(NC(=O)[C@H](N)C4CCCCC4)cc4c3c2C=NNC4=O)cn1"
  Study System: "HEK-293T"
  Population Pyknosed Nuclei (%): 92
- Compound: "C=CC(=O)Nc1ccc2ncnc(Nc3ccc(OCc4cccc(F)c4)c(Cl)c3)c2c1.Cc1ccc(S(=O)(=O)O)cc1"
  Study System: "HEK-293T"
  Population Pyknosed Nuclei (%): 32
- Compound: "Cc1c(-c2ccc(O)cc2)n(Cc2ccc(OCCN3CCCCCC3)cc2)c2ccc(O)cc12"
  Study System: "HEK-293T"
  Population Pyknosed Nuclei (%): 72
- Compound: "CC(C)(O)CNc1ncc(-c2ccnc(Nc3ccnc(Cl)c3)n2)c(CC2CC2)n1"
  Study System: "HEK-293T"
  Population Pyknosed Nuclei (%): 89
- Compound: "COc1cccc([C@@H](C)NCCCc2ccccc2Cl)c1.Cl [TECALCET HYDROCHLORIDE]"
  Study System: "HEK-293T"
  Population Pyknosed Nuclei (%): 33
- Compound: "O=C1NCN(c2ccccc2)C12CCN(CCCOc1ccc(F)cc1)CC2 [SPIRAMIDE]"
  Study System: "HEK-293T"
  Population Pyknosed Nuclei (%): 17

Measured values drawn from ChEMBL document CHEMBL4689842 for this set.
